Ref: patent US5036098A

The following compounds are listed with their measured half-life values.
Assay: in vivo
Details: rat, iv, 3 mg/kg
Where a name gives a salt, the structure may show the parent alone.
test_readout: half-life (min)

>>> experimental_value("CCN(CC)CC#CC(C)(C)OC(=O)C(O)(c1ccccc1)C1CCCCC1 (centres unmarked) [Example 4, hydrochloride]")
51
>>> experimental_value("CCN(CC)CC#CCOC(=O)C(O)(c1ccccc1)C1CCCCC1 (centres unmarked) [Oxybutynin, oxybutynin, reference compound]")
16.8

---

Assay: Acute toxicity
Set-up: species or system mice
Conditions: mouse, in vivo, po; mortality one week later, method of Weil
Where a name gives a salt, the structure may show the parent alone.
test_readout: LD50 at 168 h

>>> experimental_value("CCN(CC)CC#CC(C)(C)OC(=O)C(O)(c1ccccc1)C1CCCCC1 (stereo not shown) [Example 4, hydrochloride]")
"841 mg/kg"
